- System: OVCAR-8
- MEASUREMENT_DESCRIPTION: NCI tumour cell line growth inhibition, 48 h
The source made the active and inactive calls. No stated cut-off is given here; in the data, active = GI50 up to about 1.1 µM and inactive = higher.
ENDPOINT: GI50

// worked examples, GI50 included
CSc1ccc(NC(=S)NN(C)C)cc1 : > 10 µM (inactive)
CS/C(C#N)=C(\C#N)SC : 2.74 µM (inactive)
N#Cc1c2nc3ccccc3nc2n2ccc3ccccc3c12 : > 100 µM (inactive)
CCSCCCSCCSCC : > 100 µM (inactive)
COc1cccc(NC(=O)CC(=O)N2N=C(n3ccc4ccccc43)CC2c2ccccc2)c1 (stereo not given) : > 100 µM (inactive)
Cc1cccc(Cl)c1NCC(O)CN1CCN(C)CC1 (stereo not given) : > 100 µM (inactive)

(Q) Quote GI50 reported for c1ccc2sc(SCN(C3CCCCC3)C3CCCCC3)nc2c1 please.
(A) > 100 µM (inactive)

(Q) Quote GI50 reported for CCC1=NC(N/N=C/c2ccccc2O)=N/C1=C\c1ccccc1O please.
(A) 8.57 µM (inactive)

(Q) Quote GI50 reported for NS(=O)(=O)c1ccc(/N=N/c2ccc(O)cc2)cc1 please.
(A) 45.3 µM (inactive)

(Q) Quote GI50 reported for O=C1C(Br)=CC2(C=C1Br)CCNC1=C2C(=O)c2ncccc2C1=O please.
(A) 1.44 µM (inactive)

* * *

- Test system: SNB-75
- MEASUREMENT_DESCRIPTION: NCI tumour cell line growth inhibition, 48 h
Calls of active or inactive are those of the source. Rule as the data show it: active = GI50 up to about 1.1 µM and inactive = higher.
Your answer must be one of the following: class 1 = active, class 0 = inactive

Completed entries (count: 8):
CCOC(OCC)c1ccc(/C=C/c2cc(OC)c(OC)c(OC)c2)cc1 : class 0
CNC(=O)OCc1c(CO)nc(SC)n1C : class 0
O=[N+]([O-])c1ccc(NC2OCC(O)C(O)C2O)cc1 (configuration not stated) : class 0
Cc1cccc(NC(=O)c2c(N)[n+]([O-])c3ccccc3[n+]2[O-])c1 : class 0
CC(=O)N/C(=C\c1cccc([N+](=O)[O-])c1)c1nc2ccc3c(c2[nH]1)C(=O)c1ccccc1C3=O : class 0
Brc1ccc2[nH]c3c(C4=NCCC4)nccc3c2c1 : class 0
CCCCC(=O)Nc1ccc2cc(C(=O)OC)c(Cl)nc2n1 : class 0
COc1cc(C(=O)Nc2c3ccccc3nc3ccccc23)cc(OC)c1OC : class 1

# next compound below
(Q) Recorded test call requested for Cc1ccc2c(c1)nc1n2C(N)=Nc2ccccc2S1
(A) class 0

* * *

- Tested on: UO-31
- MEASUREMENT_DESCRIPTION: NCI tumour cell line growth inhibition, 48 h
Activity calls are given as the source filed them. Rule as the data show it: active = GI50 up to about 1.1 µM and inactive = higher.
Your answer must be one of the following: label 1 = active, label 0 = inactive

N#C[C@](CO)(NC(=O)OCc1ccccc1)C(F)F : label 0

(Q) Recorded test call requested for O=C(O)CNc1ccc2c(c1)Cc1cc(Br)ccc1-2
(A) label 0

(Q) Recorded test call requested for COC(=O)CCCc1ccc2c(c1)CCC2
(A) label 0

(Q) Recorded test call requested for CO/N=C1\CC(NC(=O)C(F)(F)F)c2ccsc21 (stereo unspecified)
(A) label 0

(Q) Recorded test call requested for c1ccc(C(c2ccccc2)c2cccnc2)cc1
(A) label 0

(Q) Recorded test call requested for CC(=O)NC1=C(NCc2ccc(Cl)cc2)C(=O)c2ccccc2C1=O
(A) label 0

(Q) Recorded test call requested for Cc1cn(C2CC(OP(=O)(O)OCC3OC(n4c[n+]([BH2-]C#N)c5c(=O)[nH]c(N)nc54)CC3O)C(CO)O2)c(=O)[nH]c1=O (stereo unspecified)
(A) label 0

(Q) Recorded test call requested for N=C(N)NS(=O)(=O)c1ccc(NCCc2c3ccccc3nc3ccccc23)cc1
(A) label 0

* * *

- System: EKVX
- MEASUREMENT_DESCRIPTION: NCI tumour cell line growth inhibition, 48 h
Activity calls are given as the source filed them. No stated cut-off is given here; in the data, active = GI50 up to about 1.1 µM and inactive = higher.
Each item that follows carries a reported GI50.

// worked examples, GI50 included
N=C(N)NS(=O)(=O)c1ccc(NCCc2c3ccccc3nc3ccccc23)cc1 : > 100 µM (inactive)
COc1cc2ccc(CC#N)cc2cc1OC : 83.8 µM (inactive)
CC1=C(CO)C(=O)OC(C(C)C2CCC3C4CC5OC56C(O)C(N5CC5)=CC(=O)C6(C)C4CCC23C)C1 (stereo not drawn) : 12.2 µM (inactive)
Cc1cc([N+](=O)[O-])ccc1Sc1c2ccccc2nc2ccccc12 : 39 µM (inactive)
CC1NC(=O)C2Cc3ccc(O)c(c3)Oc3ccc(cc3)C(O)C(C(=O)N2C)N(C)C(=O)C(C)NC(=O)C(Cc2ccc(O)cc2)N(C)C(=O)C(C)NC1=O (stereo not drawn) : 57 µM (inactive)
CCOC(=O)CC(=O)ON(C)C(C)=O : > 100 µM (inactive)
COc1cc2c3cc1Oc1cc(ccc1O)C[C@@H]1c4c(cc(OC)c(O)c4Oc4ccc(cc4)C[C@@H]3N(C)CC2)CC[N+]1(C)C : > 100 µM (inactive)
COc1cccc(N2C(=O)c3c(c4[nH]c5ccccc5c4c4ccc(C(C)(C)C)cc34)C2=O)c1 : > 100 µM (inactive)

(Q) Quote GI50 reported for COc1ccc(C2NC(=O)Nc3c2c(=O)oc2c3ccc3ccccc32)cc1 (stereo not drawn) please.
(A) 23.7 µM (inactive)

(Q) Quote GI50 reported for Nc1nnc(NC(=O)C2=NS(=O)(=O)c3cc(S(N)(=O)=O)c(Cl)cc3N2)[nH]1 please.
(A) > 100 µM (inactive)

(Q) Quote GI50 reported for OC(Cc1cnnc2ccccc12)C(Cl)(Cl)Cl (stereo not drawn) please.
(A) > 10 µM (inactive)

(Q) Quote GI50 reported for O=C(O)CNc1ccc2c(c1)Cc1cc(Br)ccc1-2 please.
(A) 5.2 µM (inactive)

(Q) Quote GI50 reported for CN1CC[N+](C)=C1c1ccccc1 please.
(A) > 100 µM (inactive)

* * *

- Tested on: SK-MEL-2
- MEASUREMENT_DESCRIPTION: NCI tumour cell line growth inhibition, 48 h
Calls of active or inactive are those of the source. Rule as the data show it: active = GI50 up to about 1.1 µM and inactive = higher.
ENDPOINT: GI50

COC(=O)c1cc2ccc(N)nc2[nH]c1=O : > 100 µM (inactive)
Cn1cc2ccccc2c1-c1nc(F)nc(OCC(=O)[C@H]2CCC3[C@@H]4CCC5=CC(=O)CC[C@]5(C)C4[C@@H](O)C[C@@]32C)n1 (some centres undefined) : 13.2 µM (inactive)
C=C(COC(C)=O)CC(/C=C(\C)CC/C=C(\C)CO)OC(C)=O (centres undefined) : > 100 µM (inactive)
Nc1nc(N)c2cc(-c3ccccc3)cnc2n1 : 33 µM (inactive)
CN(C)C(=O)CC(C(=O)O)c1c[nH]c2ccccc12 (centres undefined) : > 100 µM (inactive)

(Q) Quote GI50 reported for COc1cc2ccc(CC#N)cc2cc1OC please.
(A) > 100 µM (inactive)

(Q) Quote GI50 reported for N#C[C@](CO)(NC(=O)OCc1ccccc1)C(F)F please.
(A) > 100 µM (inactive)

(Q) Quote GI50 reported for Clc1ncnc2c1nc(C#Cc1ccccc1)n2Cc1ccccc1 please.
(A) 30 µM (inactive)

* * *

- Tested on: ACHN
- MEASUREMENT_DESCRIPTION: NCI tumour cell line growth inhibition, 48 h
Activity calls are given as the source filed them. No stated cut-off is given here; in the data, active = GI50 up to about 1.1 µM and inactive = higher. Non-standard residues stand in square brackets, D forms with d. Residues, ends and D or L forms follow the SMILES beside them. ξ: configuration not given here. *: point of attachment. dThr(3ξ) = CC(O)[C@@H](N)C(=O)O; dNMeL = CN[C@H](CC(C)C)C(=O)O; OBn = c1ccc(CO*)cc1; ξLac = CC(O)C(=O)O
Your answer must be one of the following: class 1 = active, class 0 = inactive

Completed entries (count: 5):
Cn1cc(NC(=O)Nc2cc(C(=O)Nc3cc(C(=O)Nc4cc(S(=O)(=O)O)c5cc(S(=O)(=O)O)cc(S(=O)(=O)O)c5c4)n(C)c3)n(C)c2)cc1C(=O)Nc1cc(C(=O)Nc2cc(S(=O)(=O)O)c3cc(S(=O)(=O)O)cc(S(=O)(=O)O)c3c2)n(C)c1 : class 0
O=C(O)Cc1cccc2c(=O)c3ccccc3oc12 : class 0
NCCCCNCCCNC(=O)CNC(=O)CC(O)C(N)CCCC(NC(=O)C(CN)NC(=O)C(O)CNC(=O)CC(N)c1ccc(O)cc1)C(=O)O (configuration not stated) : class 0
COc1c(C)c(C/C=C(\C)CCCCO[Si](C(C)C)(C(C)C)C(C)C)c(OC)c2ccccc12 : class 0
CN1CC[N+](C)=C1c1ccccc1 : class 0

(Q) Recorded test call requested for COc1cc2nc(-c3cccs3)nc(N3CCN(c4ccccc4)CC3)c2cc1OC
(A) class 0

(Q) Recorded test call requested for COC1=C(C(=O)OC(C)(C)C)C23CCCCC2(C(C(=O)OC(C)(C)C)=C(OC)C3C(=O)OC(C)(C)C)C1C(=O)OC(C)(C)C (configuration not stated)
(A) class 0

(Q) Recorded test call requested for CC(=O)OC(C)[C@@H](NC(=O)[C@@H](CC(C)C)N(C)C(=O)[C@@H]1CCCN1C(=O)C(C)O)C(=O)OCc1ccccc1 (some centres not stated) (H-[ξLac]P[dNMeL][dThr(3ξ)](Ac)-OBn)
(A) class 0

(Q) Recorded test call requested for C[C@]12CCC3C4=C(CCC3C1CCC2=O)C(=O)[C@H]1O[C@H]1C4=O (some centres not stated)
(A) class 0

(Q) Recorded test call requested for O=[N+]([O-])c1cc(/C=N/C23CC4CC(CC(C4)C2)C3)ccc1Cl
(A) class 0

(Q) Recorded test call requested for CCOC(=O)C1=C(C)NC(=O)NC1c1coc2cc(C)cc(C)c2c1=O (configuration not stated)
(A) class 0

(Q) Recorded test call requested for CCOC(=O)N1CCC2(CC1)C[C@](Sc1ccccc1)(C(C)=O)[C@H](C)O2
(A) class 0

(Q) Recorded test call requested for N#Cc1c2nc3ccccc3nc2n2ccc3ccccc3c12
(A) class 0

(Q) Recorded test call requested for OCC(O)CNc1ncnc2ccccc12 (configuration not stated)
(A) class 0

(Q) Recorded test call requested for CC1(C)C(CC(=O)O)CCCC1CC(=O)O (configuration not stated)
(A) class 0
